- experimental_system: Proto-oncogene tyrosine-protein kinase Src (Homo sapiens)
- experimental_details: Binding affinity was determined on Src protein tyrosine kinase SH2 domain using fluorescence polarization assay with 2% DMSO in buffer solution
metric_name: IC50 (µM)

compound: COc1ccc(C2Sc3ccccc3N(CC(=O)Nc3cccc(Oc4ccccc4)c3)C(=O)C2NC(=O)[C@H](Cc2ccc(OP(=O)(O)OCc3ccccc3)cc2)NC(=O)OC(C)(C)C)cc1 (stereo not given in full)
experimental_system: Proto-oncogene tyrosine-protein kinase Src (Homo sapiens)
IC50 / µM: 14.2

a: CC(=O)N[C@@H](Cc1ccc(OP(=O)(O)O)cc1)C(=O)N[C@H]1CSCCN(Cc2cccc(OC(F)(F)F)c2)C1=O
b: COc1ccc(C2Sc3ccccc3N(CC(=O)Nc3cccc4ccccc34)C(=O)C2NC(=O)[C@H](Cc2ccc(OP(=O)(O)OCc3ccccc3)cc2)NC(=O)OC(C)(C)C)cc1 (stereo in doubt; 3n)
Query: Of the two listed items, a and b , which carries the larger IC50 figure? Mark your answer with the label of the selected entry.
Result: b
(b: 23 µM, a: 0.4 µM)

---

- experimental_system: Proto-oncogene tyrosine-protein kinase Src (Homo sapiens, UniProt P12931)
- Sequence (P12931 2-536 limits assumed): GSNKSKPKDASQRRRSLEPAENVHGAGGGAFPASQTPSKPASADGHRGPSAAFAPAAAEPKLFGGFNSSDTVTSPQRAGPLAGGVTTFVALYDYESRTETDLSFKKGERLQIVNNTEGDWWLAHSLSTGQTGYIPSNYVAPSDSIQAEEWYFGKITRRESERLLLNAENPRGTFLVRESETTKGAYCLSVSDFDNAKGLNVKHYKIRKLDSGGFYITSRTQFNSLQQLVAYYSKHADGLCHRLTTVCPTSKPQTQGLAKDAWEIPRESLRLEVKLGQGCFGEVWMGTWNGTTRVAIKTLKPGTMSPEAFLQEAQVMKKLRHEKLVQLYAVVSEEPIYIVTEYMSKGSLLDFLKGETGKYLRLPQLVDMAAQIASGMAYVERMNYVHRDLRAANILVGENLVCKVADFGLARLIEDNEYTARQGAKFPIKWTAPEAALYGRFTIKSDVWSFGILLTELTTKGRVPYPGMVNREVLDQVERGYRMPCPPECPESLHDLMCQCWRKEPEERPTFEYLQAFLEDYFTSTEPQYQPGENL
- experimental_details: Binding affinity for Src protein tyrosine kinase SH2 domain using fluorescence polarization assay with 20% DMSO in buffer solution
pIC50: −log10 of the molar value.
metric_name: pIC50

molecule: COc1ccc(C2Sc3ccccc3N(CCCC3CCCCC3)C(=O)C2NC(=O)[C@H](Cc2ccc(OP(=O)(O)OCc3ccccc3)cc2)NC(=O)OC(C)(C)C)cc1 (some centres undefined)
metric_name: pIC50
reported_value: 4.55

I: CC(C)(C)OC(=O)N[C@@H](Cc1ccc(OP(=O)(O)O)cc1)C(=O)NC1CSc2ccccc2N(CCCC2CCCCC2)C1=O (some centres undefined)
II: CC(C)(C)OC(=O)N[C@@H](Cc1ccc(OP(=O)(O)OCc2ccccc2)cc1)C(=O)NC1CSc2ccccc2N(CCCC2CCCCC2)C1=O (some centres undefined)
Query: Would you mind telling me which has the lower recorded pIC50 between I and II ? Mark your answer with the label of the selected entry.
Result: II

---

- experimental_system: Proto-oncogene tyrosine-protein kinase Src (Homo sapiens)
- experimental_details: Binding affinity was determined on Src protein tyrosine kinase SH2 domain using scintillation proximity assay (SPA)
pIC50: −log10 of the molar value.
metric_name: pIC50

Below: 2 compounds and their reported pIC50.
item_smiles: CC(=O)N[C@@H](Cc1ccc(OP(=O)(O)O)cc1)C(=O)N[C@H]1CSCCN(CC(=O)c2ccc(N(C)C)cc2)C1=O
experimental_system: Proto-oncogene tyrosine-protein kinase Src (Homo sapiens)
pIC50: 5.03
//
item_smiles: CC(=O)N[C@@H](Cc1ccc(OP(=O)(O)O)cc1)C(=O)N[C@H]1CSCCN(Cc2ccc(-c3ccccc3)cc2)C1=O
experimental_system: Proto-oncogene tyrosine-protein kinase Src (Homo sapiens)
pIC50: 7.05

1: CC(=O)N[C@@H](Cc1ccc(OP(=O)(O)O)cc1)C(=O)N[C@H]1CSCCN(Cc2cccc(-c3ccccc3C#N)c2)C1=O
2: COC(=O)c1cccc(CN2CCSC[C@H](NC(=O)[C@H](Cc3ccc(OP(=O)(O)O)cc3)NC(C)=O)C2=O)c1
3: CC(=O)N[C@@H](Cc1ccc(OP(=O)(O)O)cc1)C(=O)N[C@H]1CSCCN(Cc2ccc3c(c2Cl)OCO3)C1=O
Query: Returns the items ordered by pIC50, from maximum to minimum. I'd appreciate it if you listed the labels in the requested order.
Result: 2, 1, 3
(2: 6.89, 1: 6.52, 3: 5.92)
